Test: Metabolic stability as percent of drug remaining after incubation with human liver S9 for 30 min was determined
Assay type: ADME, subcellular, Liver S9 fraction
Conditions: liver S9, read-out: Activity
Entries and their remaining at 0.5 h values follow.

{"columns": ["smiles.representation", "remaining at 0.5 h"],
 "data": [
  ["Cc1nc2cc(OC[C@H](O)CN3CCN(Cc4nnc(-c5ccc(C(C)(C)C)cc5)o4)CC3)ccc2s1", "25%"],
  ["Cc1nc2cc(OC[C@H](O)CN3CCN(Cc4noc(-c5ccc(F)cc5)n4)CC3)ccc2s1", "50%"],
  ["Cc1nc2cc(OC[C@H](O)CN3CCN(Cc4noc(-c5cccc(Cl)c5)n4)CC3)ccc2s1", "38%"],
  ["Cc1nc2cc(OC[C@H](O)CN3CCN(Cc4noc(-c5cccc(F)c5)n4)CC3)ccc2s1", "42%"],
  ["Cc1nc2cc(OC[C@H](O)CN3CCN(Cc4noc(-c5ccc(C#N)cc5)n4)CC3)ccc2s1", "56%"]
]}

Query: remaining at 0.5 h; subject: Cc1nc2cc(OC[C@H](O)CN3CCN(Cc4noc(-c5ccc(C(C)(C)C)cc5)n4)CC3)ccc2s1 18%

Query: remaining at 0.5 h; subject: Cc1nc2cc(OC[C@H](O)CN3CCN(Cc4nnc(-c5ccc(C(F)(F)F)cc5)o4)CC3)ccc2s1 49%

Query: remaining at 0.5 h; subject: Cc1nc2cc(OC[C@H](O)CN3CCN(Cc4nc(-c5ccc(C(C)(C)C)cc5)no4)CC3)ccc2s1 39%

----------
Entries and their remaining at 0.5 h values follow.
Assay: Metabolic stability as percent of drug remaining after incubation with human liver S9 for 30 min was determined
Type: ADME, subcellular, Liver S9 fraction
Details: liver S9, read-out: Activity
Record the value in %, omitting the unit from your answer.

{"columns": ["smiles.representation", "units.text", "assay.result"],
 "data": [
  ["Cc1nc2cc(OC[C@H](O)CN3CCN(Cc4csc(-c5ccc(C(F)(F)F)cc5)n4)CC3)ccc2s1", "%", 40],
  ["Cc1nc2cc(OC[C@H](O)CN3CCN(Cc4noc(-c5ccc(Cl)c(Cl)c5)n4)CC3)ccc2s1", "%", 30],
  ["COc1ccc(-c2nc(CN3CCN(C[C@@H](O)COc4ccc5sc(C)nc5c4)CC3)no2)cc1", "%", 39]
]}

Query: remaining at 0.5 h; subject: Cc1nc2cc(OC[C@H](O)CN3CCN(Cc4nc(-c5ccc(C(F)(F)F)cc5)sc4C)CC3)ccc2s1 40
